system: HEK293 cell line; test: MTT assay IC50 in HEK293 cell line; assay type: cell-based, human; details: HEK293 cell line, called antagonist activity against SRD5A2, read-out: IC50
observable: pIC50
Field pIC50 (float): negative decimal logarithm of the concentration in molar.

Form field: reported pIC50 of CC(C)(C)NC(=O)[C@H]1CC[C@H]2[C@@H]3CC[C@H]4NC(=O)C=C[C@]4(C)[C@H]3CC[C@]12C [Finasteride]
8.91

---

test: in vitro; settings: CD1, mouse, hepatocytes
observable: hepatocyte CLint at 1 μM (µL/min/1e6 cells)
Number in µL/min/1e6 cells, nothing else.

Form field: reported hepatocyte CLint at 1 μM of CC(C)(C)NC(=O)[C@H]1CC[C@H]2[C@@H]3CC[C@H]4NC(=O)C=C[C@]4(C)[C@H]3CC[C@]12C [Finasteride]
13.8

---

tested on: HEK293 cell line; test: MTT assay IC50 in HEK293 cell line; type: cell-based, human; settings: Homo sapiens, HEK293, HEK293 cell line, called antagonist activity against SRD5A2, read-out: IC50
Listed here: items and their measured pIC50.
Reminder that pIC50 is minus the log10 of a molar concentration.

compound	pIC50
CC(C)(C)NC(=O)[C@H]1CC[C@H]2[C@@H]3CC[C@H]4NC(=O)C=C[C@]4(C)[C@H]3CC[C@]12C [Finasteride]	8.87

Proceeding to the next compound to report its pIC50.
I'd like to know its pIC50. The compound in question is O=C1C=C(C(=O)O)C2C(C3CC3)=NN(c3ccc(F)cc3)C2N1 (centres unmarked)
10.70

---

assay: Mouse hepatocyte stability; details: CD1, mouse, cryopreserved hepatocytes in suspension
observable: hepatocyte CLint at 1 μM

Need hepatocyte CLint at 1 μM, item O=C1C=C(C(=O)O)C2C(C3CC3)=NN(c3ccc(F)cc3)C2N1 (stereo not shown) [Bsy1]
< 6.4 µL/min/1e6 cells

---

test system: DU-145 cell line; experiment: MTT assay IC50 in DU-145 cell line; assay type: cell-based, human; conditions: Homo sapiens, DU-145, DU-145 cell line, called antagonist activity against SRD5A2
IC50 listing for selected compounds.
Express the result in nM but write the number alone.

compound	IC50 [nM]
CC(C)(C)NC(=O)[C@H]1CC[C@H]2[C@@H]3CC[C@H]4NC(=O)C=C[C@]4(C)[C@H]3CC[C@]12C [Finasteride]	0.9

Now look at this entry.
Fill in: IC50 of C[C@]12C=CC(=O)N[C@@H]1CC[C@@H]1[C@@H]2CC[C@]2(C)[C@@H](C(=O)Nc3cc(C(F)(F)F)ccc3C(F)(F)F)CC[C@@H]12 [Dutasteride] is ___
1600

---

experiment: Human hepatocyte stability; settings: human, cryopreserved hepatocytes in suspension
observable: hepatocyte CLint at 1 μM (µL/min/1e6 cells)
Entry rule: numbers only, all in µL/min/1e6 cells.

Form field: reported hepatocyte CLint at 1 μM of O=C1C=C(C(=O)O)C2C(C3CC3)=NN(c3ccc(F)cc3)C2N1 (stereo not shown) [Bsy1]
4.1

---

assay: Plasma protein binding by ultracentrifugation; format: in vitro ADME; details: mouse, read-out: Mouse PPB (converted)
observable: fraction unbound at 4 h, 10 μM

molecule	fraction unbound at 4 h, 10 μM
CC(C)(C)NC(=O)[C@H]1CC[C@H]2[C@@H]3CC[C@H]4NC(=O)C=C[C@]4(C)[C@H]3CC[C@]12C [Finasteride]	0.27

Could you now look at the following molecule, please?
Which value of fraction unbound at 4 h, 10 μM has been reported for O=C1C=C(C(=O)O)C2C(C3CC3)=NN(c3ccc(F)cc3)C2N1 (centres unmarked) in the records?
0.95
